Source listed as paper PMC6839509.

For each of the substances below, state its kcat/KM Cat K.
Biological target: human recombinant cathepsin K (Homo sapiens, UniProt P43235)
Construct: with a 100 nM final concentration of each active cathepsin for 30 min; made in house
Sequence (P43235 115-329): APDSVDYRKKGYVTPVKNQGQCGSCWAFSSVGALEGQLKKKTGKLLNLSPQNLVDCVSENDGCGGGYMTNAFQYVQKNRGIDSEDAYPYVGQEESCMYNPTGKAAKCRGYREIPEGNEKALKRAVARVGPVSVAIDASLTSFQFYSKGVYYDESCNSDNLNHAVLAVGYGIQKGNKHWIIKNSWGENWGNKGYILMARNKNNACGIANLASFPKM
Test: Substrate hydrolysis kinetics (kcat, KM, kcat/KM) of ACC-labeled substrates
Type: biochemical
Settings: cathepsin K 320 nM; pH 5.5, 37 °C; Michaelis–Menten; average of at least triplicate, S.D. below 15%
Square brackets hold non-standard residues; d marks the D form. * marks the point of attachment. Phe(4-Cl) = N[C@@H](Cc1ccc(Cl)cc1)C(=O)O; ACC = NC(=O)Cc1cc(=O)oc2cc(N*)ccc12; Cha = N[C@@H](CC1CCCCC1)C(=O)O; hSer = N[C@@H](CCO)C(=O)O; OBn = c1ccc(CO*)cc1; Bn = c1ccc(C*)cc1
Answers are plain numbers, in M⁻¹ s⁻¹.

Some solved cases for reference:
Ac-[Cha]L[hSer](Bn)R-{ACC} (SMILES CC(=O)N[C@@H](CC1CCCCC1)C(=O)N[C@@H](CC(C)C)C(=O)N[C@@H](CCOCc1ccccc1)C(=O)N[C@@H](CCCNC(=N)N)C(=O)Nc1ccc2c(CC(N)=O)cc(=O)oc2c1) [ACC-labeled tetrapeptide substrate]
14
Ac-[Cha]LE(OBn)R-{ACC} (SMILES CC(=O)N[C@@H](CC1CCCCC1)C(=O)N[C@@H](CC(C)C)C(=O)N[C@@H](CCC(=O)OCc1ccccc1)C(=O)N[C@@H](CCCNC(=N)N)C(=O)Nc1ccc2c(CC(N)=O)cc(=O)oc2c1)
14

Proceeding to the next substance to report its kcat/KM Cat K.
In: Using the record for Ac-[Phe(4-Cl)]L[hSer](Bn)R-{ACC} (SMILES CC(=O)N[C@@H](Cc1ccc(Cl)cc1)C(=O)N[C@@H](CC(C)C)C(=O)N[C@@H](CCOCc1ccccc1)C(=O)N[C@@H](CCCNC(=N)N)C(=O)Nc1ccc2c(CC(N)=O)cc(=O)oc2c1) [ACC-labeled tetrapeptide substrate] , report its kcat/KM Cat K.
Out: 12
